Kindly state CC50 at 72 h for each of the entries shown.
# protocolDescription: Mammalian cell cytotoxicity assay, HepG2 (CellTiter-Glo, 72 h)
# conditionSet: human, HepG2 cells
Counter-ions that a name gives are not always drawn.

CN(C)CCCN1c2ccccc2CCc2ccccc21 [Imipramine hydrochloride] = > 9.95 µM
CC[C@]1(O)C[C@@H]2CN(CCc3c([nH]c4ccccc34)[C@@](C(=O)OC)(c3cc4c(cc3OC)N(C)[C@H]3[C@@](O)(C(N)=O)[C@H](O)[C@]5(CC)C=CCN6CC[C@]43[C@@H]65)C2)C1 = > 9.99 µM
Cc1cc(N)c2cc(NC(=O)Nc3ccc4nc(C)cc(N)c4c3)ccc2n1 [Aminoquinuride] = > 9.99 µM

Below is a list of molecules. For each, state its recorded CC50 at 72 h.
1. CC(C)C(=O)OCC(=O)[C@@]12O[C@H](C3CCCCC3)O[C@@H]1C[C@H]1[C@@H]3CCC4=CC(=O)C=C[C@]4(C)[C@H]3[C@@H](O)C[C@@]12C [Ciclesonide]
2. CCCCN(CCCC)CCC(O)c1cc2c(Cl)cc(Cl)cc2c2cc(C(F)(F)F)ccc12 (centres unmarked) [Halofantrine HCl]

1. > 9.95 µM
2. > 9.95 µM

---

# protocolDescription: Mammalian cell cytotoxicity assay, HEK293T (CellTiter-Glo, 72 h)
# conditionSet: human, HEK293T cells
Where a name gives a salt, the structure may show the parent alone.
Kindly state CC50 at 72 h for each of the entries shown.

Below is a list of molecules. For each, state its recorded CC50 at 72 h.
1. C/C=C/C[C@@H](C)C(=O)[C@H]1C(=O)N[C@@H](C(C)C)C(=O)N(C)CC(=O)N(C)[C@@H](CC(C)C)C(=O)N[C@@H](C(C)C)C(=O)N(C)[C@@H](CC(C)C)C(=O)N[C@@H](C)C(=O)N[C@H](C)C(=O)N(C)[C@@H](CC(C)C)C(=O)N(C)[C@@H](CC(C)C)C(=O)N(C)[C@@H](C(C)C)C(=O)N1C
2. OC(CCN1CCCC1)(c1ccccc1)C1CCCCC1 (stereo not drawn) [Procyclidine hydrochloride]
3. c1cc(-c2nc3ccc(-c4ccc5nc(-c6ccncc6)[nH]c5c4)cc3[nH]2)ccn1

> 9.95 µM
> 9.95 µM
> 9.95 µM

---

# protocolDescription: Mammalian cell cytotoxicity assay, HEK293T (CellTiter-Glo, 72 h)
# conditionSet: human, HEK293T cells
Structures can show the parent of a compound that is named as a salt.
Kindly state CC50 at 72 h for each of the entries shown.
Give bare numbers, in µM.

// solved cases for CC50 at 72 h follow
CC(C)c1cc(CNc2nc(Nc3cc(C4CC4)[nH]n3)cc(N3CCN(C)CC3)n2)on1 = 0.537
CC[C@]1(O)C[C@@H]2CN(CCc3c([nH]c4ccccc34)[C@@](C(=O)OC)(c3cc4c(cc3OC)N(C)[C@H]3[C@@](O)(C(=O)OC)[C@H](OC(C)=O)[C@]5(CC)C=CCN6CC[C@]43[C@@H]65)C2)C1 [Vinblastine sulfate] = 0.102
CN1CCC(CNc2ccc3ncc(-c4cccc(OC(F)(F)F)c4)n3n2)CC1 = 4.58
CCOc1cc2ncc(C#N)c(Nc3ccc(OCc4cccc(F)c4)c(Cl)c3)c2cc1NC(=O)/C=C/CN(C)C = 1.72

State its CC50 at 72 h for this compound: COc1cc(N2CCC(N3CCN(C)CC3)CC2)ccc1Nc1ncc(Cl)c(Nc2ccccc2P(C)(C)=O)n1
1.39
